// provenance: patent US20240254138A1

molecular target: CDK7/cyclinH/MAT1 trimeric complex (Homo sapiens, UniProt P50613); test: In vitro CDK7 assay, potency of irreversible covalent inhibitors (kinact/KI), coupled PK/LDH ADP readout at 340 nm; details: read-out: CDK7 (20 nM enz.) (kinact, s^−1), 20 nM enzyme
Sequence (P50613 whole entry): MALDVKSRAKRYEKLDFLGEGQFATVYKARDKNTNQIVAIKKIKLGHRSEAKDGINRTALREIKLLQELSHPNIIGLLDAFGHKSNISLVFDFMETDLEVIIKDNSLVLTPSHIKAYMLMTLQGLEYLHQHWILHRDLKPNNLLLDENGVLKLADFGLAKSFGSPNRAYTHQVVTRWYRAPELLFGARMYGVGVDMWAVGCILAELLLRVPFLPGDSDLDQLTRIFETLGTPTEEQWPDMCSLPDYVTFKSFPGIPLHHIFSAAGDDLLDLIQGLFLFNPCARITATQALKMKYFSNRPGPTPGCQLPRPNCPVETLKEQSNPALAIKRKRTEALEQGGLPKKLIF
Sequence (P51946 whole entry partner): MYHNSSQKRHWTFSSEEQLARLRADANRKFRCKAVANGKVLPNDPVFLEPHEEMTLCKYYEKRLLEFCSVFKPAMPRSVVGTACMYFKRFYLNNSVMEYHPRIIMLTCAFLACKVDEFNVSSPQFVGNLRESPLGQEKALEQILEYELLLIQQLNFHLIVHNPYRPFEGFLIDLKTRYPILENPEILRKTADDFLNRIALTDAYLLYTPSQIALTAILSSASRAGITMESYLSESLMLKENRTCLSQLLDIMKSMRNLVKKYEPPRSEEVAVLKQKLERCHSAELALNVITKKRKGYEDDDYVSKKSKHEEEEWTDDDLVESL
Sequence (P51948 whole entry partner): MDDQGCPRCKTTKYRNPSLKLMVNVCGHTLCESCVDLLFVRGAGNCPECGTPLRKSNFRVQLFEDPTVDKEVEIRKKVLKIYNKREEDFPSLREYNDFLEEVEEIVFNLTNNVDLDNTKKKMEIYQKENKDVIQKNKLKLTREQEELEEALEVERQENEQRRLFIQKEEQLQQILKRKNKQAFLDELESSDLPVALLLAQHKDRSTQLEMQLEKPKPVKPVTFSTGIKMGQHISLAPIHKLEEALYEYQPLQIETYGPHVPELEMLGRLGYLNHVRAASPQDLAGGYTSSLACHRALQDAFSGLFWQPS
MEASURE: kinact (s⁻¹)
Write down the numeric answer in s⁻¹ and omit the unit.

Reference set (5 entries):
[
  {
    "COMPOUND": "C=CC(=O)N1CC[C@H](N2CC(c3cc4c(c(C)n3)OCc3c(-c5cnn(C)c5)ccnc3N4)C2)[C@@H](F)C1 (mixture of isomers) [Compound 212]",
    "kinact / s⁻¹": "2.94e-05"
  },
  {
    "COMPOUND": "C=CC(=O)N1CC[C@@H](N2CC(c3cc4c(c(C)n3)OCc3c(-c5cnn(C)c5)ccnc3N4)C2)C1 (single isomer, unassigned) [Compound 204]",
    "kinact / s⁻¹": "3.71e-05"
  },
  {
    "COMPOUND": "C=CC(=O)N1CC[C@H](N2CC(c3cc(C)c4c(c3)Nc3nccc(C5CCOCC5)c3CO4)C2)C1 (single isomer, unassigned) [Compound 193]",
    "kinact / s⁻¹": "3.66e-05"
  },
  {
    "COMPOUND": "C=CC(=O)N1CC[C@@H](N2CC(c3cc4c(c(C5CC5)n3)OCc3c(N5CCOCC5)ccnc3N4)C2)C1 (single isomer, unassigned) [Compound 323]",
    "kinact / s⁻¹": "6.41e-05"
  },
  {
    "COMPOUND": "C=CC(=O)N1CC(N2CC[C@H](c3cc(C)c4c(c3)Nc3nccc(C5CCOCC5)c3CO4)N(C)CC2)C1 (single isomer, unassigned) [Compound 257]",
    "kinact / s⁻¹": "7.95e-05"
  }
]

Please look up its kinact: C=CC(=O)N1CC(N2CCC(c3cc4c(c(C)n3)O[C@@H](C)c3c(C5CCOCC5)ccnc3N4)CC2)C1 (single isomer, unassigned) [Compound 247]
5.48e-05

What would you report for C=CC(=O)N1CCC(n2ccc(-c3cc4c(c(C)n3)OCc3c(N5CCOCC5)ccnc3N4)cc2=O)CC1 [compound 419] ?
3.95e-05

What would you report for C=CC(=O)N1CC[C@H](N2CC(c3cc(C)c4c(c3)Nc3nccc(N5CCOCC5)c3[C@H](C)O4)C2)C1 (single isomer, unassigned) [Compound 231] ?
6.1e-05

What would you report for CC#CC(=O)N1CC[C@@H](N2CC(c3cc4c(c(C5CC5)n3)O[C@H](C)c3c(N5CCOCC5)ccnc3N4)C2)C1 (single isomer, unassigned) [Compound 464] ?
2.27e-05

What would you report for C=CC(=O)N1CC(N2CC[C@@H](c3ccc4c(c3)Nc3nccc(N5CCOCC5)c3CO4)[C@H](O)C2)C1 (mixture of isomers) [Compound 72] ?
6.82e-05

What would you report for CC#CC(=O)N1CC(n2cc(-c3cc(C#N)c4c(c3)Nc3nccc(N5CCOCC5)c3C(C)O4)cn2)C1 (stereo not drawn) [Compound 417] ?
1.51e-05

What would you report for C=CC(=O)N1CC(N2CC[C@@H](c3ccc4c(c3)Nc3nccc(N5CCOCC5)c3CO4)[C@@H](O)C2)C1 (mixture of isomers) [Compound 228] ?
6.25e-05
